Ref: patent US20180220650A1

Method description: Hydrolytic stability assay
Assay type: physicochemical
Conditions: aqueous buffer with acetonitrile co-solvent; pH 9 + 25% MeCN; 40° C.; read-out: Hydrolytic Stability (t1/2, hours) (converted)
Assign half-life to each entry below.

Input line: Consider the compound CC1=CC(O/C=C2/C(=O)O[C@]3(C)CC[C@H]4C(C)(C)CCC[C@]4(C)[C@@H]23)OC1=O (stereo partly drawn) and give its measured half-life.
Output line: 3 h

Input line: Similarly, CC1=C(C)C(O/C=C2/C(=O)O[C@]3(C)CC[C@H]4C(C)(C)CCC[C@]4(C)[C@@H]23)N(c2ccccc2)C1=O (stereo partly drawn) ?
Output line: > 17.8 h

Input line: Follow-up item: CC1=C(C)C(O/C=C2/C(=O)O[C@]3(C)CC[C@H]4C(C)(C)CCC[C@]4(C)[C@@H]23)OC1=O (stereo partly drawn)
Output line: 19.4 h
